- Tested on: T-47D breast
- assay.notes: NCI tumour cell line growth inhibition, 48 h
Field: TGI. Provide a value for each of the compounds that follow.
Your answer is read as µM, so omit the unit and give the number.

Param readout = TGI; param system = T-47D breast; param query = Fc1ccc(C(OCCN2CCC3CCC(C2)N3C/C=C/c2ccco2)c2ccc(F)cc2)cc1 (stereo not given) ; response: value
20.8

What is its TGI for T-47D breast? Entry: CC1OC(n2c3ccccc3c3c4c(c5c6ccccc6[nH]c5c32)C(=O)N(CCN[C@@H]2CCC[C@H]2N)C4=O)CC(O)C1O (stereo not given in full)
6.46

# value lookup — system T-47D breast, readout TGI, item COc1cc(Nc2c(C#N)cnc3cc(OCCCN4CCN(C)CC4)c(OC)cc23)c(Cl)cc1Cl
18.2

Which measured TGI belongs to CN(C)CCNC(=O)c1cc([N+](=O)[O-])cc2c1Oc1ccccc1O2 , tested on T-47D breast?
69.6

Value wanted: TGI (T-47D breast) of entry CCCN(CCCc1ccccc1)CCc1ccc2[nH]c(=S)[nH]c2c1
43.2

---

- System: OVCAR-3 ovarian
- assay.notes: NCI tumour cell line growth inhibition, 48 h
result.type: TGI (µM)
# value in µM; strip the unit string

TGI for CNc1ccc2c(c1)[C@@]1(C)c3ccccc3[C@@H](C2)N1C ?
50.5

Look up TGI for this molecule: CCOP(=O)(OCC)C(Nc1ccc(Br)cc1)c1cccc([N+](=O)[O-])c1 (configuration not stated)
35.6

Can you look up the measured TGI of COC(=O)[C@@]12OC[C@]34[C@H]([C@@H](O)[C@@H]1O)[C@@]1(C)[C@H](O)C(=O)C=C(C)[C@@H]1C[C@H]3OC(=O)C(OC(C)=O)[C@@H]24 (some centres not stated) for me?
0.0714

---

- System: DU-145 prostate
- assay.notes: NCI tumour cell line growth inhibition, 48 h
Provide the reported log10 TGI of each item.
In plain terms, each number is the log10 of measured TGI in µM.

Which measured log10 TGI value corresponds to CN[C@H](C#Cc1c(F)ccc2c1/C(=C/c1[nH]ccc1OC)C(=O)N2)CO ?
0.48

Item under review: CNC(=O)c1cccc2cc(Oc3ccnc4cc(OCC5(N)CC5)c(OC)cc34)ccc12 . Reported log10 TGI?
1.41

Any idea what log10 TGI was measured for CNCCCn1c2c(c3ccc([N+](=O)[O-])cc3c1=O)C(=O)c1cc(OC)cnc1-2 ?
0.06

What does the record list as log10 TGI for COc1cccc([C@H]2C/C(=N\NC(=O)C(=O)N[C@@H](C)c3ccccc3)c3ccccc3N2)c1 ?
1.19

Reported log10 TGI for O=C(C[n+]1ccc2ccccc2c1)c1ccc2ccc3ccccc3c2c1 : what is it?
1.33

Param item = O=C1c2cccc(NCCN=Cc3cc([N+](=O)[O-])ccc3O)c2C(=O)c2c(NCCN=Cc3cc([N+](=O)[O-])ccc3O)cccc21 ; retrieve measured log10 TGI.
1.76

Need log10 TGI, item CCN(CC)/C(Sc1ccccc1)=C(\C(Cl)=C(Cl)Cl)[N+](=O)[O-]
1.54

I'd like to know its log10 TGI. The compound in question is CCn1c(-c2ccc(N=NNc3ccc(-c4n[nH]c(=S)n4CC)cc3)cc2)n[nH]c1=S
0.91

Dear colleague, I am looking for the recorded log10 TGI of the following compound: COc1cc2c(cc1O)CC[C@@H]1[C@@H]2CC[C@]2(C)[C@@H](OCCN(C)C)CC[C@@H]12
0.73

// returns reported log10 TGI for input COC1=CC(c2ccc[nH]2)=N/C1=C\c1[nH]c(C)c(C(=O)CCCCC(=O)NC(C)(C)C)c1C
0.58

Consider the compound O=C1C(N2CC2)=C(N2CC2)C(=O)C(N2CC2)=C1N1CC1 and give its measured log10 TGI.
-0.31

Reported log10 TGI, compound Cc1cc(O)c(C2=NN(c3ccc(S(N)(=O)=O)cc3)C(c3ccccc3Cl)C2)cc1Cl (centres undefined) : ____
0.59

Reported log10 TGI, compound Nc1ccc2c(SCc3ccc([N+](=O)[O-])cc3)c3ccccc3nc2c1 : ____
1.25

Looking for the measured log10 TGI of CCOC(=O)c1c2c(n(Cc3ccc(Cl)cc3Cl)c1C)-c1nc[nH]c1C(=O)C2=O , can you help?
1.38

# log10 TGI lookup, item CC1OC(n2c3ccccc3c3c4c(c5c6ccccc6[nH]c5c32)C(=O)N(CCN[C@@H]2CCC[C@H]2N)C4=O)CC(O)C1O (some centres undefined)
0.92

Bench note: what log10 TGI did Cc1cc(C(=C2C=CC(=Nc3ccccc3)C=C2)c2ccc(Nc3ccccc3)cc2)ccc1N show?
0.20

May I ask what log10 TGI has been recorded for CCn1cc(C(=O)N/N=C/c2ccccc2)c(=O)c2cc(F)c(N3CCNC(C)C3)c(F)c21 (centres undefined) ?
0.52

Given the compound NC(=O)c1ccccc1Nc1ccc2nnc(-c3ccncc3)n2n1 , what is its reported log10 TGI?
1.44

The measured values listed here are drawn from PubChem BioAssay (NCI).
